- Test system: adult brown dog ticks (Rhipicephalus sanguineus)
- METHOD DESCRIPTION: Rhipicephalus sanguineus in-vitro contact test, adult brown dog ticks
- Assay type: in vivo
- MEASUREMENT PARAMETERS: 48 h, read-out: efficacy (ticks dead or moribund)
- Description: Rhipicephalus sanguineus—In-Vitro Contact Tests with Adult Brown Dog Ticks 9 mg compound is solved in 1 mL acetone and diluted with acetone to the desired concentration. […] After the solvent has evaporated, each test tube is filled with 5-10 adult brown dog ticks (Rhipicephalus sanguineus), closed with a perforated lid and incubated in a lying position at room temperature and relative humidity. After 48 hours efficacy is determined. […]
We begin with a simple list: items and their reported pest or weed control at 5 µg/cm2, 500 g/ha.
Report only the number, with the unit % understood.

- CNC(=O)c1cc(-n2nc(C)nc2[C@H](C)NC(=O)c2cc(Br)cc(Br)c2)ncn1: 100
- Cc1nc([C@H](C)NC(=O)c2cc(Cl)cc(Cl)c2)n(-c2cc(C(N)=O)ncn2)n1: 100

// query pest or weed control at 5 µg/cm2, 500 g/ha value for entry "C[C@H](NC(=O)c1cc(Br)cc(Br)c1)c1ncnn1-c1cc(C#N)ncn1" 100

// query pest or weed control at 5 µg/cm2, 500 g/ha value for entry "C[C@H](NC(=O)c1cc(C(F)(F)F)cc(C(F)(F)F)c1)c1ncnn1-c1cc(C(=O)N(C)CC2CC2)ncn1" 100

// query pest or weed control at 5 µg/cm2, 500 g/ha value for entry "C[C@H](NC(=O)c1cc(OC(F)(F)F)cc(OC(F)(F)F)c1)c1nc(C2CC2)nn1-c1cc(C(N)=O)ncn1" 80
